Exercise: for every item that follows, state its recorded inhibition.
- assay target: Adenosine receptor A3 (Homo sapiens)
- experiment: Displacement of [3H]HEMADO from human adenosine A3 receptor expressed in HEK293 cell membranes at 1 uM after 90 mins relative to control
Numbers only, in %.

Please review the entries below; each comes with its answer.
compound: CCCn1c(Oc2cccnc2C)nc2nc(C3CCCC3)[nH]c2c1=O
assay target: Adenosine receptor A3 (Homo sapiens)
readout type: inhibition
recorded value: 35

compound: CCCn1c(NCC(=O)O)nc2nc(C3CCCC3)[nH]c2c1=O
assay target: Adenosine receptor A3 (Homo sapiens)
readout type: inhibition
recorded value: 0

Give inhibition for each of the items listed below.
1. CCCn1c(Oc2cncc(Cl)c2)nc2nc(C3CCCC3)[nH]c2c1=O
2. CCCn1c(Oc2cccc(O)c2)nc2nc(C3CCCC3)[nH]c2c1=O
3. CCCn1c(NCc2ccc(C(F)(F)F)cc2)nc2nc(C3CCCC3)[nH]c2c1=O
4. CCCn1c(Oc2cccc(C(F)(F)F)c2)nc2nc(C3CCCC3)[nH]c2c1=O
5. CCCn1c(Oc2cccc3cc[nH]c23)nc2nc(C3CCCC3)[nH]c2c1=O
6. CCCn1c(NCCO)nc2nc(C3CCCC3)[nH]c2c1=O

[76, 69, 23, 35, 40, 0]

Give inhibition for each of the items listed below.
1. CCCn1c(-c2cccc(C(F)(F)F)c2)nc2nc(C3CCCC3)[nH]c2c1=O
2. CCCn1c(NCc2ccc(C)cc2)nc2nc(C3CCCC3)[nH]c2c1=O
3. CCCn1c(OC2CCCC2)nc2nc(C3CCCC3)[nH]c2c1=O
4. CCCn1c(-c2ccc(C(F)(F)F)cc2)nc2nc(C3CCCC3)[nH]c2c1=O
5. CCCn1c(OC2CCC(O)C2)nc2nc(C3CCCC3)[nH]c2c1=O (stereo unspecified)
6. CCCn1c(OC2CCOCC2)nc2nc(C3CCCC3)[nH]c2c1=O
7. CCCn1c(Oc2ccc3[nH]ccc3c2)nc2nc(C3CCCC3)[nH]c2c1=O
8. CCCn1c(Nc2ccc(F)cc2)nc2nc(C3CCCC3)[nH]c2c1=O

[0, 24, 79, 5, 37, 0, 34, 24]

Values from ChEMBL document CHEMBL3992564
